Origin of the recorded values: the supplement of paper PMC10126150

Tested on: ATP;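 also: ATP exposure 15 min at 22 °C before imaging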
Assay: switch fluorescence ratio, 500 uM ATP over buffer (Cy3 cluster intensity, sum of 5 cycles each) (fold (ratio)); higher = stronger signal-on switching upon ATP binding; sequences stand for … in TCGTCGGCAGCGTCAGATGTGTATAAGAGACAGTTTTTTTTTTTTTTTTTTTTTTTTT…TC
Details: aptamer strand: ATP DNA aptamer (quencher-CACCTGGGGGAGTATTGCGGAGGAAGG + anchor), 100 nM annealed; ATP concentration: 500 uM
switch fluorescence ratio values by entry
reported-property: switch fluorescence ratio

1. ATGGGGCAGG; 1.01
2. GTGTTTACTG; 1.01
3. TGACAAGTGG; 1.01
4. AGCTTTTTTA; 1.02
5. CGGGGATAGG; 1.04
6. ATTAGTAACG; 1.03
7. AGTGGTGGG; 1.02
8. AAATAGTGG; 0.963
9. TAGCGTAGAA; 0.993
10. ACTGGTATAA; 0.989
11. CAGGTTGCAC; 0.989
12. TGGACGAAGT; 1.01
13. CAGAGATGTT; 1.01
14. CGTCGGAGTG; 1.01
15. GGGACTCGTG; 1.04
16. TGACCGCGGA; 1.11
17. TTTCCGGGTG; 2.5
18. TTTAAGAGTA; 1
19. AGGACAAATC; 0.985
20. CTTCCTATTG; 1.08
21. AAAGATCGTT; 0.98

----------
Tested on: ATP;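 also: ATP exposure 15 min at 22 °C before imaging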
Assay: switch fluorescence ratio, 500 uM ATP over buffer (Cy3 cluster intensity, sum of 5 cycles each) (fold (ratio)); higher = stronger signal-on switching upon ATP binding; sequences stand for … in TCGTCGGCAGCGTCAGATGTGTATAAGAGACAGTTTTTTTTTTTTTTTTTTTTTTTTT…TC
Conditions: aptamer strand: ATP DNA aptamer (quencher-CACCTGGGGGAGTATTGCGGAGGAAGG + anchor), 100 nM annealed; ATP concentration: 500 uM
reported-property: switch fluorescence ratio

1) TTTACGGGAT; 1.06
2) CGCTTTTTTG; 1.01
3) AGCTATTCCG; 1.01
4) TAGAATCAGG; 1.06
5) AGTTTTCATG; 1.02
6) CAGGGGTGAT; 1.18
7) GTCGTTCGCA; 1.15
8) CTTAGAATGA; 0.979
9) ATACAATAGA; 1
10) GCCTTCCTTT; 2.15
11) TACCGTGGGT; 0.99
12) GGGGTTTACT; 1.01
13) TATGGGGTGT; 1.01
14) ATATGGTCGT; 0.998
15) ATGGCAGGTT; 1.01
16) GTGATTTTGT; 1.01
17) GGTTAAGGGG; 1.05
18) CAGAGTCCTC; 1.01
19) GTATGCGAAG; 1.03
20) GTGTAAATGG; 1.01
21) TCAGGGTGGG; 1
22) GTATGGGGGA; 1.01
23) TTACTGGAG; 1.02
24) GAGCTAGGGA; 1.01
25) ATGAATGGAG; 1.01
26) CCAATGTGCG; 0.993
27) AGGTAGAGTA; 0.97
28) TTAATAGAGT; 1
29) TGAGGGATGT; 1.04
30) TGAATGTTTG; 1.01
31) GGAGGAGGGG; 1
32) TTTATTTTG; 0.956
33) TCCTAGGTTT; 1
34) CTTGTTTGAC; 0.988
35) GTGGGTTCCT; 1.01
36) GATGTTATTC; 0.978
37) TTTTTAGGTT; 1.04
38) CGTTGTCGTT; 1.01
39) GAATTTTGCG; 0.999
40) GTTGCTCTCA; 1.01
41) TGATGGGCAG; 1.01
42) CGTGGCAGCA; 1.03
43) TGTAACTCAT; 1

----------
Tested on: ATP;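 also: ATP exposure 15 min at 22 °C before imaging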
Assay: switch fluorescence ratio, 500 uM ATP over buffer (Cy3 cluster intensity, sum of 5 cycles each) (fold (ratio)); higher = stronger signal-on switching upon ATP binding; sequences stand for … in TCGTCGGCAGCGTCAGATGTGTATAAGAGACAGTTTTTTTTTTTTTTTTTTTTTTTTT…TC
Settings: aptamer strand: ATP DNA aptamer (quencher-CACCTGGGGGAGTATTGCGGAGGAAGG + anchor), 100 nM annealed; ATP concentration: 500 uM
reported-property: switch fluorescence ratio

1) AAGCGGTTG; 1
2) TCTTTATATG; 0.999
3) TTTGGGTGGC; 1.03
4) CACGTACGGG; 1.59
5) AAGTTAATGG; 1.01
6) TATGGAGGGT; 1.01
7) GATTTCTGCT; 0.974
8) GCAGTTGGGA; 1.02
9) AATTGGGTGC; 1.09
10) GGGGGAACTA; 0.989
11) CGGGGCTATT; 0.999
12) GGCGGATCAG; 0.983
13) AATCGCGGCC; 1.03
14) AAGGGTGGGT; 0.988
15) CTGAATATGA; 1
16) CGTAGGGGCT; 1
17) AAGGTGTTTC; 1.08
18) TTGCACTGAC; 1.53
19) TATGGGGCTT; 0.992
20) AATTAGACGA; 0.958
21) CGTCGGAGGG; 0.977

----------
Test system: ATP;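 also: ATP exposure 15 min at 22 °C before imaging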
Assay: switch fluorescence ratio, 500 uM ATP over buffer (Cy3 cluster intensity, sum of 5 cycles each) (fold (ratio)); higher = stronger signal-on switching upon ATP binding; sequences stand for … in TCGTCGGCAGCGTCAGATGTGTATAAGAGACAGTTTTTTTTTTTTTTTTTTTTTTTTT…TC
Settings: aptamer strand: ATP DNA aptamer (quencher-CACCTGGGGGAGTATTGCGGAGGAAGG + anchor), 100 nM annealed; ATP concentration: 500 uM
reported-property: switch fluorescence ratio

1. TAACGACCGC; 1.24
2. AAGAGGGATG; 0.988
3. TATAAGACTT; 1.01
4. TTTTGGGGTG; 1.05
5. ACATTGTTTT; 1.02
6. GGGTTCAGGT; 1.01
7. ACGGGAAAAG; 1.01
8. TGTGGCAAAA; 1.01
9. TATATTGTAA; 1.01
10. AATTGAACGG; 1
11. TTGGCTTTTA; 0.99
12. AGGTTATAGG; 1.05
13. GGGTAAGGTT; 0.985
14. CGGTTTTGTT; 1.02
15. GTTCGGGGGG; 1
16. ACCTCATTTG; 1.07
17. ACGGACCATT; 1.27
18. ATATGTATGC; 0.979
19. AATAAAAGTT; 1.1
20. AAATTTTGAG; 1.02

----------
Tested on: ATP;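 also: ATP exposure 15 min at 22 °C before imaging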
Test: switch fluorescence ratio, 500 uM ATP over buffer (Cy3 cluster intensity, sum of 5 cycles each) (fold (ratio)); higher = stronger signal-on switching upon ATP binding; sequences stand for … in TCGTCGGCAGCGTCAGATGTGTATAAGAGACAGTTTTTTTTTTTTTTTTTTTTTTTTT…TC
Conditions: aptamer strand: ATP DNA aptamer (quencher-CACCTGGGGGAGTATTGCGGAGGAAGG + anchor), 100 nM annealed; ATP concentration: 500 uM
reported-property: switch fluorescence ratio

1. TTTAATGTTG; 1.01
2. ATTGTGGGAC; 0.996
3. GTTGGTTATG; 0.99
4. TGGGTAAATT; 0.983
5. AAGTACAGCG; 1.03
6. AATGGCGTAT; 1.02
7. TGAGTTTTTT; 0.982
8. AGAATAGTGG; 0.96
9. AGCAGGGCGG; 0.983
10. GGGTTTTTGG; 0.997
11. TTTTTTGCGG; 1.08
12. TCGCTGGGAT; 1.2
13. GGTGGGAGAC; 1.01
14. TTCGCAACAG; 2.19
15. ACGTTGACAG; 1.05
16. GGGAGGTGGG; 1.01
17. TGGGGGTGGT; 1
18. GGGGTCCAAG; 1
19. TAATATGATT; 0.999
20. CAAGTTGTTT; 0.996

----------
Tested on: ATP;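 also: ATP exposure 15 min at 22 °C before imaging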
Assay: switch fluorescence ratio, 500 uM ATP over buffer (Cy3 cluster intensity, sum of 5 cycles each) (fold (ratio)); higher = stronger signal-on switching upon ATP binding; sequences stand for … in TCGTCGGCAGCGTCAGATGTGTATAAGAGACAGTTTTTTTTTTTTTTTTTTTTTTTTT…TC
Conditions: aptamer strand: ATP DNA aptamer (quencher-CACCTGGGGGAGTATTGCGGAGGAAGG + anchor), 100 nM annealed; ATP concentration: 500 uM
reported-property: switch fluorescence ratio

1. GATTCAGGGT; 1
2. TCGATCTTTT; 1.24
3. ATAGTGGTGC; 0.958
4. CTTCATGGGT; 0.962
5. ACTAGCTCTG; 1
6. TTTATTAGCT; 1.02
7. GTGTCGGATC; 1.06
8. GAATTTTTTG; 0.988
9. GGGGCTTGCA; 1.02
10. TGCATCAATA; 1.03
11. TAAGACTGAT; 1.02
12. ATAACAAATT; 1.03
13. ATTTTGCGTG; 0.98
14. GAGGGGGAGC; 1.03
15. TCGGGTGTGA; 1.03
16. CTCAAAGTCT; 1.02
17. TTTTTGTAGG; 0.995
18. CGTTGCGGTA; 1.04
19. TTTGCTTAAC; 1.07
20. GAGTCATGCG; 0.911
21. GAAAGATGAC; 1.03
22. CCGTAAAACT; 2.46
23. AAAGGAATTT; 1.12
24. TTGTTGTTCG; 1.01
25. GACTTTGTGC; 0.977
26. ATAGTTGGA; 0.953
27. ATAGTGGACA; 0.987
28. GGGAAGGGGG; 1
29. CGTATTCGCT; 0.993
30. TGTGTTGGTT; 0.994
31. AATACTGTCG; 1.01
32. TTGAGGAAGG; 0.983
33. GCTGGGTTTC; 0.996
34. TTTGAGAAGA; 1.02
35. TCGGGGTCTG; 0.987
36. CGGTCAACG; 0.993
37. GGGTGGGATT; 0.986
38. GTTTTATGGT; 0.968
39. CTTTGGGCAA; 1.46
40. GCAAACTCTG; 1.12
41. TTAGGTTTAT; 0.986
42. CTGCGTCTTT; 1.03
43. TTAGGCGTAT; 0.989
44. GTGGGGAAGT; 0.995
45. ATCGGTCCTT; 1.03
46. TTTGCCCCGG; 1.12
47. AGAGCTGGGG; 0.985
48. AAATTTGCGT; 0.987
49. CAAATACTTG; 1.04
50. TCAAATATTT; 0.979
51. TTAAGAGTCT; 1.02
52. TTCTTTGTGA; 1
53. ACGAACGGTA; 1.37
54. AAAGAGGCGG; 1.01
55. AGGTTATTTG; 0.978
56. CGAAGAGGTC; 1.02
57. CCTGAGGGCG; 1.04
58. GCGGGGTGTT; 1.03
59. TTTTTGAAGT; 1.01
60. CACATGTTAT; 1.02
61. CGTAGCTTTT; 1.82
62. AATTTTACGG; 1.07
63. CATTTTCCGC; 1.81
64. TGAGGGGAGT; 0.991
65. GTCAATAAGG; 0.99
66. AGACTGCTGG; 0.977
67. GAAGGAGGGT; 0.973
68. GAGTCCCTGA; 0.993
69. TAGAGGATGC; 0.998
70. CTTCGTGCGA; 1.14
71. TTTTTACTCC; 1.48
72. TTGGTGTTTT; 1.02
73. ATTTTAAGTC; 0.987
74. GTTATGTGGT; 0.975
75. GGGCAGTTCG; 1.02
76. ATTTTTTGG; 0.997
77. GGGATCGTTT; 0.982
78. TGGGGCCCTT; 1.04
79. TCTAAAATTT; 1.15
80. TTGTTTGGGT; 0.984
81. GGGATTTTGC; 0.952
82. CTGAGCTTTC; 1.29
83. AGGCGCCTGG; 0.964
84. GGGTTGAGGT; 0.984
85. GGGTTTATCT; 0.986
86. CTCGGGGTCG; 0.994
